Known IC50 of a selection of binders
experimental target: HLA-DRB1*0701 (human)
experiment description: competition binding
applied conditions: modification not given
endpoint name: IC50 (µM)

1) RGYHQYAYDGKDYIA [p22] | 33.4
2) RCWALSFYPAEITLT [p40] | 0.045
3) RAYLEGTCVEWLRRY [p33] | 0.637
4) HTVQRMYGCDVGSDW [p17*] | 1.59
5) YAYDGKDYIALKEDL [p24] | 4.47
6) VRFDSDAASQRMEPR [p8*] | 4.65
